Recorded Population Pyknosed Nuclei (%), one value per entry.
tested on: HEK-293T; experiment: Multiplex assay against HEK293T; type: toxicity, cell-based; details: human, 48 h, 10 µM, compound concentration 10 uM, replicate 2
Reply numerically in %, unit not repeated.

COMPOUND	UNIT_ABBREV	VALUE_OBSERVED
CC(=O)c1cc(-c2cc(C(=O)NC3CC3)ccc2C)c2ncccn12	%	35
Cc1nc(Cc2cccc(C(F)(F)F)c2)sc1-c1ccc(C(N)=O)nc1 [TP-024n]	%	50
CCC(=O)O[C@]1(C(=O)SCF)[C@H](C)C[C@H]2[C@@H]3C[C@H](F)C4=CC(=O)C=C[C@]4(C)[C@@]3(F)[C@@H](O)C[C@@]21C [FLUTICASONE PROPIONATE]	%	18

# evaluate next
Please list Population Pyknosed Nuclei (%) recorded for the compound COc1ccc(NS(=O)(=O)c2sc3ccc(Cl)cc3c2C)cc1N1CCNCC1.Cl 67

###

system: HEK-293T; assay: Multiplex assay against HEK293T; type: toxicity, cell-based; conditions: human, 48 h, 1 µM, compound concentration 1 uM, replicate 2
Recorded Population Healthy Nuclei (%), one value per entry.
Reply numerically in %, unit not repeated.

Observe how each entry below is paired with its result.
>>> print(df.to_string())
                                   compound  assayed_system  value_observed
0  COc1cc2c(NC3CCN(C(C)C)CC3)nc(N3CCC(F)(F)CC3)nc2cc1OCCCN1CCCC1        HEK-293T              78
1  Cc1cc2c(cc1N1C(=O)c3cccc4c(CCCO)ccc(c34)C1=O)n(C)c(=O)n2C        HEK-293T              79
2  Nc1nc2c(c(N3CCNCC3)n1)CCC1=C2[C@@H]2CCCC[C@@H]2O1        HEK-293T              76
3  CC(=O)c1cc(-c2cc(C(=O)NC3CC3)ccc2C)c2ncccn12        HEK-293T              78
4             CNc1oc(-c2cccc3ccccc23)nc1C#N        HEK-293T              84

Please list Population Healthy Nuclei (%) recorded for the compound CCCn1c(=O)c2[nH]c(C34CC5CC(CC3C5)C4)nc2n(CCC)c1=O 78

Please list Population Healthy Nuclei (%) recorded for the compound Cc1nc(Cc2cccc(C(F)(F)F)c2)sc1-c1ccc(C(N)=O)nc1 [TP-024n] 80

Please list Population Healthy Nuclei (%) recorded for the compound COc1ccc(NS(=O)(=O)c2sc3ccc(Cl)cc3c2C)cc1N1CCNCC1.Cl 81

Please list Population Healthy Nuclei (%) recorded for the compound CCc1cc2c(cc1CC)CC(NC[C@H](O)c1ccc(O)c3[nH]c(=O)ccc13)C2 73

Please list Population Healthy Nuclei (%) recorded for the compound CCn1c(-c2nonc2N)nc2cnc(Oc3cccc(NC(=O)c4ccc(OCCN5CCOCC5)cc4)c3)cc21 [GSK-269962A] 66

Please list Population Healthy Nuclei (%) recorded for the compound Nc1ccc(C(=O)Nc2cccc(-c3nc(N4CCOCC4)c4oc5ncccc5c4n3)c2)cn1 55

Please list Population Healthy Nuclei (%) recorded for the compound CC(C)N1CCC(C)(C)c2cc(C#Cc3ccc(C(=O)O)cc3)ccc21 80
